- system-name: HLA-A*24 (human)
- procedure-summary: UV-exchange ELISA, exchange yield grade
Property: peptide exchange yield; scope: individual binders

binder: VYIAELEKI [… (SEQ ID NO: 378)]
peptide exchange yield: 50 to 75%

Query: peptide exchange yield; subject: EYLQNLNHI [… (SEQ ID NO: 311)]
> 75%

Query: peptide exchange yield; subject: KFDDVTMLF [… (SEQ ID NO: 301)]
> 75%

Query: peptide exchange yield; subject: NYGVLHVTF [… (SEQ ID NO: 359)]
> 75%

Query: peptide exchange yield; subject: AFIETPIPLF [… (SEQ ID NO: 209)]
> 75%

Query: peptide exchange yield; subject: VYPPYLNYL [… (SEQ ID NO: 181)]
50 to 75%

Query: peptide exchange yield; subject: SYTSVLSRL [… (SEQ ID NO: 312)]
50 to 75%

Query: peptide exchange yield; subject: IYSFHTLSF [… (SEQ ID NO: 113)]
50 to 75%

Query: peptide exchange yield; subject: NYMPGQLTI [… (SEQ ID NO: 356)]
> 75%

Query: peptide exchange yield; subject: IYQFVADSF [… (SEQ ID NO: 229)]
50 to 75%

Query: peptide exchange yield; subject: KYQYVLNEF [… (SEQ ID NO: 299)]
50 to 75%

Query: peptide exchange yield; subject: VYNYAEQTL [… (SEQ ID NO: 362)]
20 to 49%

Query: peptide exchange yield; subject: VFTTSSNIF [… (SEQ ID NO: 186)]
> 75%

Query: peptide exchange yield; subject: FYTFPFQQL [… (SEQ ID NO: 277)]
50 to 75%

Query: peptide exchange yield; subject: YYSEVPVKL [… (SEQ ID NO: 358)]
50 to 75%

Query: peptide exchange yield; subject: EYLDRIGQLFF [… (SEQ ID NO: 131)]
50 to 75%
